Recorded values, source ChEMBL document CHEMBL1153624.

Field: Activity. Provide a value for each of the compounds that follow.
- procedure-details: Metabolic stability in sc dosed hamster liver assessed as formation of 2'-C-methylcytidine triphosphate ((2R,3R,4R,5R)-5-(4-amino-2-oxopyrimidin-1(2H)-yl)-3,4-dihydroxy-4-methyltetrahydrofuran-2-yl)methyl tetrahydrogen triphosphate at 1.5 umol after 6 hrs
- Assay type: ADME, organism-based
- test-settings: cricetinae, in vivo

[
  {
    "compound": "CCCCCCOCCOC(=O)[C@H](C)NP1(=O)OC[C@H]2O[C@@H](n3ccc(N)nc3=O)[C@](C)(O)[C@@H]2O1 (stereo not given in full)",
    "Activity": "2.6 nmol/g"
  }
]

Please give Activity for each item listed below.
1. CCCCCCCOC(=O)[C@H](C)NP1(=O)OC[C@H]2O[C@@H](n3ccc(N)nc3=O)[C@](C)(O)[C@@H]2O1 (stereo in doubt; 12 S.E.)
2. CC(C)[C@H](N)C(=O)O[C@@H]1[C@@H](CO)O[C@@H](n2ccc(N)nc2=O)[C@]1(C)O [VALOPICITABINE]

Data returned:
5.9 nmol/g
< 0.2 nmol/g

Please give Activity for each item listed below.
1. C[C@H](NP1(=O)OC[C@H]2O[C@@H](n3ccc(N)nc3=O)[C@](C)(O)[C@@H]2O1)C(=O)OC1CCCCCC1 (stereo not given in full)
2. CCC(CC)COC(=O)[C@H](C)NP1(=O)OC[C@H]2O[C@@H](n3ccc(N)nc3=O)[C@](C)(O)[C@@H]2O1 (stereo not given in full)

Data returned:
1: 10.3 nmol/g; 2: 8.9 nmol/g

----------
- System: Hepatitis C virus
- procedure-details: Antiviral activity against HCV infected in human HuH7 cells by cell-based subgenomic replicon assay
- Format: functional, organism-based, Hepacivirus hominis, Huh-7
- test-settings: Hepatitis C virus, Huh-7
metric-name: EC50 (µM)
Numbers only, in µM.

[
  {
    "molecule": "CC(C)[C@H](N)C(=O)O[C@@H]1[C@@H](CO)O[C@@H](n2ccc(N)nc2=O)[C@]1(C)O [VALOPICITABINE]",
    "EC50 [µM]": 7.6
  }
]

Next molecule, EC50 to be filled in.
Data request: Report EC50, nothing else, for this molecule: CCCCCCOCCOC(=O)[C@H](C)NP1(=O)OC[C@H]2O[C@@H](n3ccc(N)nc3=O)[C@](C)(O)[C@@H]2O1 (some centres undefined)
Data returned: 14
